Assay: Acute toxicity, oral administration in female and male Swiss mice (Reed-Muench method as modified by Pizzi)
Details: mouse, in vivo
Excerpt: (b) Acute toxicity.-Acute toxicity has been determined in both female and male Swiss mice by oral administration according to the method by Reed-Muench as modified by Pizzi (Human Biology, 22(3), 151-190, 1950).

{"compound": "C[C@H](O)[C@@H](c1ccc2c(c1)OCO2)N1CCOCC1 (relative stereo)", "measureUnit": "mg/kg", "LD50": 1200}
{"compound": "C[C@H](O)[C@@H](c1ccc2c(c1)OCO2)N(C)Cc1ccccc1 (relative stereo)", "measureUnit": "mg/kg", "LD50": 360}
{"compound": "C[C@H](O)[C@H](NCc1ccccc1)c1ccc2c(c1)OCO2 (relative stereo)", "measureUnit": "mg/kg", "LD50": 252}
{"compound": "C[C@H](O)[C@@H](c1ccc2c(c1)OCO2)N1CCN(Cc2ccccc2)CC1 (relative stereo)", "measureUnit": "mg/kg", "LD50": 256}
{"compound": "C[C@H](O)[C@H](NC1CCCCC1)c1ccc2c(c1)OCO2 (relative stereo)", "measureUnit": "mg/kg", "LD50": 245}
{"compound": "C[C@H](O)[C@@H](c1ccc2c(c1)OCO2)N1CCCCC1 (relative stereo)", "measureUnit": "mg/kg", "LD50": 277}
{"compound": "C[C@H](O)[C@@H](c1ccc2c(c1)OCO2)N1CCCCCC1 (relative stereo)", "measureUnit": "mg/kg", "LD50": 233}
{"compound": "C[C@H](O)[C@@H](c1ccc2c(c1)OCO2)N1CCCC1 (relative stereo)", "measureUnit": "mg/kg", "LD50": 599}
{"compound": "C[C@H](O)[C@@H](c1ccc2c(c1)OCO2)N1CCC(O)CC1 (relative stereo)", "measureUnit": "mg/kg", "LD50": 1060}
{"compound": "CCN(CC)[C@H](c1ccc2c(c1)OCO2)[C@H](C)O (relative stereo)", "measureUnit": "mg/kg", "LD50": 317}
{"compound": "C[C@H](O)[C@@H](c1ccc2c(c1)OCO2)N(C)C1CCCCC1 (relative stereo)", "measureUnit": "mg/kg", "LD50": 167}
{"compound": "C[C@H](O)[C@H](NC1CC1)c1ccc2c(c1)OCO2 (relative stereo)", "measureUnit": "mg/kg", "LD50": 780}

Values were extracted from patent US4535159A.
